system: Nuclear factor erythroid 2-related factor 2 (Homo sapiens) (UniProt Q16236)
Sequence (Q16236 whole entry): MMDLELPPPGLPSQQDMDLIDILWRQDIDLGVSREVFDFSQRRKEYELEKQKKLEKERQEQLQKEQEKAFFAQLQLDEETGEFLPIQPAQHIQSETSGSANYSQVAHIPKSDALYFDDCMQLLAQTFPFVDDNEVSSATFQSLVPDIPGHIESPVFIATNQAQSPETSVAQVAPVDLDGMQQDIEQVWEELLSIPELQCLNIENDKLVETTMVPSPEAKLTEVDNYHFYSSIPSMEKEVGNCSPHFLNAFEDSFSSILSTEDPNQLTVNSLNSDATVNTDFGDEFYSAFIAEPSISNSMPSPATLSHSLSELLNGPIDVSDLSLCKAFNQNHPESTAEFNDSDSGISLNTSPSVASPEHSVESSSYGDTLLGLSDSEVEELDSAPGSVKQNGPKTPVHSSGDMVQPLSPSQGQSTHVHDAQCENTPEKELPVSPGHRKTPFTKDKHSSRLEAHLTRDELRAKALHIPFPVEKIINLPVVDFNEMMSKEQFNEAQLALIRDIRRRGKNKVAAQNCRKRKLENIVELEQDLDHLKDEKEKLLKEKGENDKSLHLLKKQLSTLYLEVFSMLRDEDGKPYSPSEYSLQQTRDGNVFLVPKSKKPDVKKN
test: Activation of Nrf2 in human HepG2-ARE-C8 cells assessed as induction of ARE-mediated luciferase activity at 0.1 uM after 24 hrs by luciferase reporter gene assay relative to control
Format: cell-based
measured.attribute: Activity

smiles.string	Activity
Clc1cccc(-c2nc(-c3ccc4nc[nH]c4c3)no2)c1	3.23

In plain terms, Fc1ccc(-c2nc(-c3cnccn3)no2)cc1F has a documented Activity of 1.43

In plain terms, Fc1ccc(-c2nc(-c3ccc(Cl)cc3)no2)cc1F has a documented Activity of 3.06

In plain terms, Fc1ccc(-c2nc(-c3ccncc3)no2)cc1F has a documented Activity of 1.62

In plain terms, Fc1ccc(-c2nc(-c3cccnc3)no2)cc1F has a documented Activity of 1.71

In plain terms, Fc1ccc(-c2nc(-c3ccc4nc[nH]c4c3)no2)cc1F has a documented Activity of 6.21

In plain terms, Fc1ccc(-c2nc(-c3ccc4ccccc4c3)no2)cc1F has a documented Activity of 1.27

In plain terms, COc1cccc(-c2noc(-c3ccc(F)c(F)c3)n2)c1 has a documented Activity of 1.87

In plain terms, Fc1ccc(-c2nc(-c3ccc4nc[nH]c4c3)no2)cc1Br has a documented Activity of 1.36

In plain terms, Fc1ccc(-c2nc(-c3ccc4nc[nH]c4c3)no2)c(Br)c1 has a documented Activity of 2.65

In plain terms, Fc1ccc(-c2nc(-c3ncccc3F)no2)cc1F has a documented Activity of 1.25

In plain terms, Fc1ccc(-c2nc(-c3ccc4nc[nH]c4c3)no2)c(F)c1 has a documented Activity of 2.17

In plain terms, Fc1cccc(-c2nc(-c3ccc4nc[nH]c4c3)no2)c1 has a documented Activity of 2.69

In plain terms, Cc1cccc(-c2noc(-c3ccc(F)c(F)c3)n2)n1 has a documented Activity of 1.08

In plain terms, Brc1ccc(-c2nc(-c3ccc4nc[nH]c4c3)no2)cc1 has a documented Activity of 0.25

In plain terms, Fc1ccccc1-c1nc(-c2ccc3nc[nH]c3c2)no1 has a documented Activity of 4.51
